molecular target: Serine/threonine-protein kinase B-raf (Homo sapiens, UniProt P15056, V600E); experiment: Inhibition of human BRAF V600E mutant expressed in Sf9 cells
Sequence (P15056 2-766 V600E limits assumed): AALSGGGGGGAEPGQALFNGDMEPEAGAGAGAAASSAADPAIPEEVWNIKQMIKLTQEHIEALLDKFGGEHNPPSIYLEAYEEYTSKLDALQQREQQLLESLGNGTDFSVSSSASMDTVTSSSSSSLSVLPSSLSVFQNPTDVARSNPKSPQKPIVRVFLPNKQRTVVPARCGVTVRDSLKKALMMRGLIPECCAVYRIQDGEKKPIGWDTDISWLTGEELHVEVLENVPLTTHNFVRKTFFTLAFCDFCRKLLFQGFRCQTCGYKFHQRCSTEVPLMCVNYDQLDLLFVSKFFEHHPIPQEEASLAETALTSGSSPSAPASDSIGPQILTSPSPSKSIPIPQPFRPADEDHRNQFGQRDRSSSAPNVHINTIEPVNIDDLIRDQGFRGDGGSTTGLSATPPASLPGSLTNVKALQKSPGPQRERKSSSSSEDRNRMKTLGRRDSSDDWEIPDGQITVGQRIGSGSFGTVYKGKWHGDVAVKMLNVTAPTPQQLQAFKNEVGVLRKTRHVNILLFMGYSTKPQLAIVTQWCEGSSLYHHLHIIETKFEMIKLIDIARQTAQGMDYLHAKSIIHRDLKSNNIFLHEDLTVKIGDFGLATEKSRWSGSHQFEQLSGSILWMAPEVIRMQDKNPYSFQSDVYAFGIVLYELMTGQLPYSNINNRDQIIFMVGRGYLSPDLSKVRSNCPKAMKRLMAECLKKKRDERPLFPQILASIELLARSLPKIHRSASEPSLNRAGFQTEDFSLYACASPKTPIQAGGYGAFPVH
MEASURED PARAMETER: pIC50
Friendly reminder that pIC50 comes from taking -log10 of the concentration in mol/L.

Query: What value of measured pIC50 is listed for O=c1[nH]c2nccc(Oc3cccc(NS(=O)(=O)c4ccc(Cl)c(C(F)(F)F)c4)c3)c2[nH]1 ?
Response: 5.17

* * *

target: Serine/threonine-protein kinase B-raf (Homo sapiens, UniProt P15056, V600E); assay: Inhibition of BRAF V600E mutant-mediated ERK phosphorylation in human WM266.4 cells; format: cell-based
Below: a set of entries, each annotated with reported IC50.
Answer format: numeric, µM implied, no suffix.

# SMILES CODE, RECORDED RESULT
data = [
    ("CC(C)(C)c1cc(C(=O)Nc2cccc(Oc3ccnc4[nH]c(=O)[nH]c34)c2)n(-c2ccccc2)n1", 13.7),
]

Now consider the entry below.
Query: I'm curious: which IC50 was measured for O=C(Nc1cccc(Oc2ccnc3[nH]c(=O)[nH]c23)c1)c1cccc(N2CCCCC2)c1 tested on Serine/threonine-protein kinase B-raf (Homo sapiens, UniProt P15056, V600E)?
Response: 15.4

* * *

target: Serine/threonine-protein kinase B-raf (Homo sapiens, UniProt P15056, V600E); assay: Inhibition of human BRAF V600E mutant expressed in Sf9 cells
pIC50: −log10 of the molar value.
Please use Condition met whenever pIC50 is not below 6, and Condition not met whenever it is.

Consider the worked cases shown below.
# SMILES CODE, LABEL CLASS
rows = [
    ("CC(C)(C)c1cc(C(=O)Nc2cccc(Oc3ccnc4[nH]c(=O)[nH]c34)c2)n(Cc2ccccc2)n1", "Condition not met"),
    ("O=C(Nc1cccc(Oc2ccnc3[nH]c(=O)[nH]c23)c1)c1cccc2c1OCCCO2", "Condition not met"),
    ("O=C(Nc1cccc(Oc2ccnc3[nH]c(=O)[nH]c23)c1)c1ccc2nsnc2c1", "Condition not met"),
    ("O=C(Cc1cccc(OC(F)(F)F)c1)Nc1cccc(Oc2ccnc3[nH]c(=O)[nH]c23)c1", "Condition not met"),
    ("O=C(Cc1cccc(C(F)(F)F)c1)Nc1cccc(Oc2ccnc3[nH]c(=O)[nH]c23)c1", "Condition not met"),
]

Query: Assess whether reported pIC50 for O=C(Nc1cccc(Oc2ccnc3[nH]c(=O)[nH]c23)c1)c1ccnn1-c1ccccc1 sits at 6 or higher.
Response: Condition not met

* * *

test: Antiproliferative activity against human WM266.4 cells after 6 days by SRB assay; assay type: functional; details: WM 266-4, 144 h
# GI50 binned as bucket 1: < 1 µM; bucket 2: ≥ 1 µM and < 20 µM; bucket 3: ≥ 20 µM

Consider the worked cases shown below.
# SMILES CODE, LABEL CLASS
records = [
    ("O=C(Cc1cccc(OC(F)(F)F)c1)Nc1cccc(Oc2ccnc3[nH]c(=O)[nH]c23)c1", "bucket 3"),
    ("O=C(Nc1cccc(Oc2ccnc3[nH]c(=O)[nH]c23)c1)c1cccc(Br)c1", "bucket 1"),
    ("O=C(Nc1cccc(Oc2ccnc3[nH]c(=O)[nH]c23)c1)c1ccccc1OC(F)(F)F", "bucket 2"),
]

Query: Exam item: assign O=c1[nH]c2nccc(Oc3cccc(NS(=O)(=O)c4cccc(C(F)(F)F)c4)c3)c2[nH]1 to the correct category.
Response: bucket 1

Query: Thanks! And O=C(Nc1cccc(Oc2ccnc3[nH]c(=O)[nH]c23)c1)Nc1cc(C(F)(F)F)ccc1N1CCOCC1 ?
Response: bucket 2

Query: Thanks! And O=C(Nc1cc(Oc2ccnc3[nH]c(=O)[nH]c23)c(F)cc1F)c1cccc(OC(F)(F)F)c1 ?
Response: bucket 2

Query: Thanks! And O=C(Nc1cccc(Oc2ccnc3[nH]c(=O)[nH]c23)c1)c1ccc(Cl)c(C(F)(F)F)c1 ?
Response: bucket 2

Query: Thanks! And O=c1[nH]c2nccc(Oc3cccc(NS(=O)(=O)c4ccc(Cl)c(C(F)(F)F)c4)c3)c2[nH]1 ?
Response: bucket 3

Query: Thanks! And O=C(Nc1cccc(Oc2ccnc3[nH]c(=O)[nH]c23)c1)c1ccc2nsnc2c1 ?
Response: bucket 2

Query: Thanks! And Cc1ccc(-n2nc(C(F)(F)F)cc2NC(=O)Nc2cccc(Oc3ccnc4[nH]c(=O)[nH]c34)c2)cc1 ?
Response: bucket 2

Query: Thanks! And O=c1[nH]c2nccc(Oc3cccc(NS(=O)(=O)c4cccc5ccccc45)c3)c2[nH]1 ?
Response: bucket 1

Query: Thanks! And O=C(Nc1cccc(Oc2ccnc3[nH]c(=O)[nH]c23)c1)c1cc(F)cc(N2CCOCC2)c1 ?
Response: bucket 3

* * *

Below: a set of entries, each annotated with reported GI50.
assay: Antiproliferative activity against human WM266.4 cells after 6 days by SRB assay; assay type: functional; settings: WM 266-4, 144 h
Answer format: numeric, µM implied, no suffix.

Query: What value of measured GI50 is listed for O=C(Nc1cccc(Oc2ccnc3[nH]c(=O)[nH]c23)c1)c1ccc2sccc2c1 ?
Response: 1.5

Query: Thanks! And CC(C)(C)c1cccc(NC(=O)Nc2cccc(Oc3ccnc4[nH]c(=O)[nH]c34)c2)c1 ?
Response: 12.9

Query: Thanks! And CC(C)c1cc(C(=O)Nc2cccc(Oc3ccnc4[nH]c(=O)[nH]c34)c2)n(-c2ccccc2)n1 ?
Response: 5.7

Query: Thanks! And O=C(Nc1cccc(Oc2ccnc3[nH]c(=O)[nH]c23)c1)c1ccnn1-c1ccccc1 ?
Response: 15.6

* * *

target: Serine/threonine-protein kinase B-raf (Homo sapiens, UniProt P15056, V600E); assay: Inhibition of human BRAF V600E mutant expressed in Sf9 cells
pIC50: −log10 of the molar value.
Below: a set of entries, each annotated with reported pIC50.

# SMILES CODE, TARGET DESC, pIC50
records = [
    ("O=C(Nc1cccc(Oc2ccnc3[nH]c(=O)[nH]c23)c1)c1cccc(-n2ccnc2)c1", "Serine/threonine-protein kinase B-raf (Homo sapiens, UniProt P15056, V600E)", "< 5.00"),
    ("O=C(Nc1ccc(Oc2ccnc3[nH]c(=O)[nH]c23)cc1)c1cc(F)cc(N2CCOCC2)c1", "Serine/threonine-protein kinase B-raf (Homo sapiens, UniProt P15056, V600E)", "< 4.00"),
    ("O=c1[nH]c2nccc(Oc3cccc(NCc4cccc(OC(F)(F)F)c4)c3)c2[nH]1", "Serine/threonine-protein kinase B-raf (Homo sapiens, UniProt P15056, V600E)", "< 5.00"),
]

Query: What value of measured pIC50 is listed for CN(C)c1cccc(C(=O)Nc2cccc(Oc3ccnc4[nH]c(=O)[nH]c34)c2)c1 ?
Response: < 4.00

* * *

target: Serine/threonine-protein kinase B-raf (Homo sapiens, UniProt P15056, V600E); assay: Inhibition of human BRAF V600E mutant expressed in Sf9 cells
MEASURED PARAMETER: pIC50
Friendly reminder that pIC50 comes from taking -log10 of the concentration in mol/L.

Worked cases, answers included:
# SMILES CODE, RECORDED RESULT
measured = [
    ("O=c1[nH]c2nccc(Oc3cccc(NS(=O)(=O)c4cccc(OC(F)(F)F)c4)c3)c2[nH]1", 4.95),
    ("CC(C)(C)c1cccc(NC(=O)Nc2cccc(Oc3ccnc4[nH]c(=O)[nH]c34)c2)c1", 6.71),
    ("O=C(Nc1ccc(Oc2ccnc3[nH]c(=O)[nH]c23)cc1)Nc1ccc(Cl)c(C(F)(F)F)c1", 7.64),
    ("O=C(Nc1cccc(Oc2ccnc3[nH]c(=O)[nH]c23)c1)Nc1ccc(Cl)c(C(F)(F)F)c1", 7.82),
]

Now consider the entry below.
Query: What value of measured pIC50 is listed for O=C(Nc1cccc(Oc2ccnc3[nH]c(=O)[nH]c23)c1)Nc1cc(C(F)(F)F)ccc1F ?
Response: 7.59

* * *

biological target: Serine/threonine-protein kinase B-raf (Homo sapiens, UniProt P15056, V600E); assay: Inhibition of human BRAF V600E mutant expressed in Sf9 cells
MEASURED PARAMETER: IC50 (nM)
Answer format: numeric, nM implied, no suffix.

Worked cases, answers included:
# SMILES CODE, IC50 / nM
rows = [
    ("O=C(Cc1ccccc1)Nc1cccc(Oc2ccnc3[nH]c(=O)[nH]c23)c1", 87000),
    ("Cc1ccc(-n2nc(C(C)(C)C)cc2NC(=O)c2cccc(Oc3ccnc4[nH]c(=O)[nH]c34)c2)cc1", 590),
    ("Cc1ccc(-n2nc(C(C)(C)C)cc2NC(=O)Nc2cccc(Oc3ccnc4[nH]c(=O)[nH]c34)c2)cc1", 128),
]

Query: What value of measured IC50 is listed for O=C(Nc1cccc(OC(F)(F)F)c1)c1cccc(Oc2ccnc3[nH]c(=O)[nH]c23)c1 ?
Response: 48

Query: Thanks! And O=C(Nc1cccc(Oc2ccnc3[nH]c(=O)[nH]c23)c1)c1cc(F)cc(N2CCOCC2)c1 ?
Response: 62

Query: Thanks! And CC(C)(C)c1cc(C(=O)Nc2cccc(Oc3ccnc4[nH]c(=O)[nH]c34)c2)n(-c2ccccc2)n1 ?
Response: 274

Query: Thanks! And O=C(CCc1ccccc1)Nc1cccc(Oc2ccnc3[nH]c(=O)[nH]c23)c1 ?
Response: 94000

Query: Thanks! And O=c1[nH]c2nccc(Oc3cccc(NS(=O)(=O)c4cccc(C(F)(F)F)c4)c3)c2[nH]1 ?
Response: 15400

Query: Thanks! And O=C(Nc1ccc(Oc2ccnc3[nH]c(=O)[nH]c23)cc1)c1ccc(Br)cc1 ?
Response: 14000

Query: Thanks! And O=C(Nc1cccc(Oc2ccnc3[nH]c(=O)[nH]c23)c1)Nc1ccc(F)c(F)c1 ?
Response: 1120

Query: Thanks! And O=C(Nc1cccc(F)c1)Nc1cccc(Oc2ccnc3[nH]c(=O)[nH]c23)c1 ?
Response: 2750

Query: Thanks! And CC(C)(C)c1cc(NC(=O)Nc2cccc(Oc3ccnc4[nH]c(=O)[nH]c34)c2)n(-c2ccc(F)cc2)n1 ?
Response: 123

Query: Thanks! And O=c1[nH]c2nccc(Oc3cccc(NS(=O)(=O)c4ccccc4)c3)c2[nH]1 ?
Response: 1660

Query: Thanks! And O=C(Nc1cc(C(F)(F)F)ccc1F)c1cccc(Oc2ccnc3[nH]c(=O)[nH]c23)c1 ?
Response: 4700
